# Test system: LRO4
# Measurement protocol: Phage ELISA, binding of phage clones to coated LRO4
# Design: species or system murine
# Run conditions: Table 2B, Ph.D.7C7 library clones; 10^10 pfu/ml; OD 405-490 nm
Exercise: state measured Binding of phages to LR04 for each of the substances provided.
Could you give the number and then its unit, please?

Look at each substance and report its Binding of phages to LR04.
1. NNSHMPL [Ca9, Cb3, Ca8, Ca10]
2. QNSHMPL [Ca3]
3. KNSXQPL [Ca4]
4. NNSNMPL [Cb10]
5. DWAPHFT [Cb2]
6. NNRNMPL [Ca59, Cb1]

0.9 OD
0.5 OD
0.9 OD
0.6 OD
1.0 OD
0.8 OD

Each substance below has a recorded value; state its Binding of phages to LR04.
1. NNWKMPL [Cb4]
2. NNSXMPL [Ca6]

1. 0.6 OD
2. 0.7 OD
